- TEST SUMMARY: Half life in Soviet Chinchilla rabbit by HPLC analysis
- Assay type: ADME, Oryctolagus cuniculus
- PARTICULARS: in vivo
MEASUREMENT NAME: half-life (h)
Give just the number in h; leave the unit off.

Prompt: What does the record list as half-life for `CN1/C(=C/C=C2C=C(/C=C/C3=[N+](CCCCCC(=O)NCc4cn(CCCNC(=O)[C@H](Cc5ccc(O)cc5)NC(=O)[C@H](Cc5ccccc5)NC(=O)CCC(=O)NCCCCCC(=O)N(CCCC[C@H](NC(=O)N[C@@H](CCC(=O)O)C(=O)O)C(=O)O)Cc5cccc(Cl)c5)nn4)c4ccc(S(=O)(=O)[O-])cc4C3(C)C)CCC/2)C(C)(C)c2cc(S(=O)(=O)O)ccc21` ?
Completion: 1.39

* * *

Please provide measured solubility for the entries that follow.
- TEST SUMMARY: Water solubility of the compound
- Format: physicochemical
Give just the number in µg/mL; leave the unit off.

Prompt: What does the record list as solubility for `CN1/C(=C/C=C2C=C(/C=C/C3=[N+](CCCCCC(=O)NCc4cn(CCCNC(=O)[C@H](Cc5ccc(O)cc5)NC(=O)[C@H](Cc5ccccc5)NC(=O)CCC(=O)NCCCCCC(=O)N(CCCC[C@H](NC(=O)N[C@@H](CCC(=O)O)C(=O)O)C(=O)O)Cc5cccc(Cl)c5)nn4)c4ccc(S(=O)(=O)[O-])cc4C3(C)C)CCC/2)C(C)(C)c2cc(S(=O)(=O)O)ccc21` ?
Completion: 560

Prompt: What does the record list as solubility for `CN1/C(=C/C=C/C=C/C2=[N+](CCCCCC(=O)NCc3cn(CCCNC(=O)[C@H](Cc4ccc(O)cc4)NC(=O)[C@H](Cc4ccccc4)NC(=O)CCC(=O)NCCCCCC(=O)N(CCCC[C@H](NC(=O)N[C@@H](CCC(=O)O)C(=O)O)C(=O)O)Cc4cccc(Cl)c4)nn3)c3ccc(S(=O)(=O)[O-])cc3C2(C)C)C(C)(C)c2cc(S(=O)(=O)O)ccc21` ?
Completion: 7000

* * *

- TEST SUMMARY: AUC (0 to t) in Soviet Chinchilla rabbit by HPLC analysis
- Assay type: ADME, Oryctolagus cuniculus
- PARTICULARS: in vivo
MEASUREMENT NAME: AUC(0-t) (ng·h/mL)
Give just the number in ng·h/mL; leave the unit off.

Prompt: What does the record list as AUC(0-t) for `CN1/C(=C/C=C2C=C(/C=C/C3=[N+](CCCCCC(=O)NCc4cn(CCCNC(=O)[C@H](Cc5ccc(O)cc5)NC(=O)[C@H](Cc5ccccc5)NC(=O)CCC(=O)NCCCCCC(=O)N(CCCC[C@H](NC(=O)N[C@@H](CCC(=O)O)C(=O)O)C(=O)O)Cc5cccc(Cl)c5)nn4)c4ccc(S(=O)(=O)[O-])cc4C3(C)C)CCC/2)C(C)(C)c2cc(S(=O)(=O)O)ccc21` ?
Completion: 70000

* * *

- TEST SUMMARY: AUC (0 to infinity) in Wistar Albino rat by HPLC analysis
- Format: ADME
- Design: time infinity
- PARTICULARS: in vivo
MEASUREMENT NAME: AUC(0-inf) (µg·h/mL)
Give just the number in µg·h/mL; leave the unit off.

Prompt: What does the record list as AUC(0-inf) for `CN1/C(=C/C=C2C=C(/C=C/C3=[N+](CCCCCC(=O)NCc4cn(CCCNC(=O)[C@H](Cc5ccc(O)cc5)NC(=O)[C@H](Cc5ccccc5)NC(=O)CCC(=O)NCCCCCC(=O)N(CCCC[C@H](NC(=O)N[C@@H](CCC(=O)O)C(=O)O)C(=O)O)Cc5cccc(Cl)c5)nn4)c4ccc(S(=O)(=O)[O-])cc4C3(C)C)CCC/2)C(C)(C)c2cc(S(=O)(=O)O)ccc21` ?
Completion: 76
